The origin of these recorded values is patent US20210347865A1.

binders and their reported pKd
EXPERIMENTAL SYSTEM: T1, native human ApoC3 (human, UniProt P02656 21-99, biotinylated in the captured-antigen assays (Tables 6 and 8); sites not stated)
T1 construct: also called nhuApoC3; native huApoC3
T1 sequence (P02656 21-99): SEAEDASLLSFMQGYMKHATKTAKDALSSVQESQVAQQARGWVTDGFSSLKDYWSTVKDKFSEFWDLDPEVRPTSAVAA
ASSAY PROTOCOL: SPR, biotinylated antigen captured on streptavidin chip, IgG as analyte, pH 7.4
Remember the convention: pKd equals -log10 of concentration in molar.

Sample records with pKd:
5E5 WT IgG (antibody, V domains shown, Full-length IgG captured by an anti-human Fc antibody) VH: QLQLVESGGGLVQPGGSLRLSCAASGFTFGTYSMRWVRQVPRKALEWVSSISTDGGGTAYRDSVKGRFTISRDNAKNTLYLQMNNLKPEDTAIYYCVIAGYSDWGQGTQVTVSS VL: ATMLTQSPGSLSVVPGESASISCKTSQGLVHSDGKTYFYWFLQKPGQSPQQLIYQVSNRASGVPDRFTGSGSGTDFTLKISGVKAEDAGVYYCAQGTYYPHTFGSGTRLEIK
10.30
29A06 IgG (antibody, V domains shown) VH: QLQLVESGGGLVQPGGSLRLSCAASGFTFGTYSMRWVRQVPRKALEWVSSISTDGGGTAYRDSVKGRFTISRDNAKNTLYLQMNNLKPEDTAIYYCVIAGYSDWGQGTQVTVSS VL: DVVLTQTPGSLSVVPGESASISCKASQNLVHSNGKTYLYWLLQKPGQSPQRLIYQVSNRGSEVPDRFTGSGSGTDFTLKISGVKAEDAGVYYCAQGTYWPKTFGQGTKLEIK
10.40

Now look at this one.
Would you mind telling me what pKd value was observed for 30D10 IgG (antibody, V domains shown) VH: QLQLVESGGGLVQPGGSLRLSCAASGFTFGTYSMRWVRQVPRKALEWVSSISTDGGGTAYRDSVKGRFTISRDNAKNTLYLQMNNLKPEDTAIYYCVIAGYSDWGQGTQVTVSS VL: DVVLTQTPGSLSVVPGESASISCTASQSLRHSDGRTYLYWLRQKPGQSPQRLIKRVSTRDPGVPDRFTGSGSGTDFTLKISGVRAEDAGVYYCAQGTYYPLTFGQGTKVELK ?
10.00
